# experimental-system: SMARCA2-HiBiT HeLa cells (protein which is expressed from the SMARCA2 gene) (Homo sapiens)
# Construct: protein which is expressed from the SMARCA2 and SMARCA4 genes; host or cells: HeLa (SMARCA2-HiBiT engineered line)
# Sequence (P51531 whole entry): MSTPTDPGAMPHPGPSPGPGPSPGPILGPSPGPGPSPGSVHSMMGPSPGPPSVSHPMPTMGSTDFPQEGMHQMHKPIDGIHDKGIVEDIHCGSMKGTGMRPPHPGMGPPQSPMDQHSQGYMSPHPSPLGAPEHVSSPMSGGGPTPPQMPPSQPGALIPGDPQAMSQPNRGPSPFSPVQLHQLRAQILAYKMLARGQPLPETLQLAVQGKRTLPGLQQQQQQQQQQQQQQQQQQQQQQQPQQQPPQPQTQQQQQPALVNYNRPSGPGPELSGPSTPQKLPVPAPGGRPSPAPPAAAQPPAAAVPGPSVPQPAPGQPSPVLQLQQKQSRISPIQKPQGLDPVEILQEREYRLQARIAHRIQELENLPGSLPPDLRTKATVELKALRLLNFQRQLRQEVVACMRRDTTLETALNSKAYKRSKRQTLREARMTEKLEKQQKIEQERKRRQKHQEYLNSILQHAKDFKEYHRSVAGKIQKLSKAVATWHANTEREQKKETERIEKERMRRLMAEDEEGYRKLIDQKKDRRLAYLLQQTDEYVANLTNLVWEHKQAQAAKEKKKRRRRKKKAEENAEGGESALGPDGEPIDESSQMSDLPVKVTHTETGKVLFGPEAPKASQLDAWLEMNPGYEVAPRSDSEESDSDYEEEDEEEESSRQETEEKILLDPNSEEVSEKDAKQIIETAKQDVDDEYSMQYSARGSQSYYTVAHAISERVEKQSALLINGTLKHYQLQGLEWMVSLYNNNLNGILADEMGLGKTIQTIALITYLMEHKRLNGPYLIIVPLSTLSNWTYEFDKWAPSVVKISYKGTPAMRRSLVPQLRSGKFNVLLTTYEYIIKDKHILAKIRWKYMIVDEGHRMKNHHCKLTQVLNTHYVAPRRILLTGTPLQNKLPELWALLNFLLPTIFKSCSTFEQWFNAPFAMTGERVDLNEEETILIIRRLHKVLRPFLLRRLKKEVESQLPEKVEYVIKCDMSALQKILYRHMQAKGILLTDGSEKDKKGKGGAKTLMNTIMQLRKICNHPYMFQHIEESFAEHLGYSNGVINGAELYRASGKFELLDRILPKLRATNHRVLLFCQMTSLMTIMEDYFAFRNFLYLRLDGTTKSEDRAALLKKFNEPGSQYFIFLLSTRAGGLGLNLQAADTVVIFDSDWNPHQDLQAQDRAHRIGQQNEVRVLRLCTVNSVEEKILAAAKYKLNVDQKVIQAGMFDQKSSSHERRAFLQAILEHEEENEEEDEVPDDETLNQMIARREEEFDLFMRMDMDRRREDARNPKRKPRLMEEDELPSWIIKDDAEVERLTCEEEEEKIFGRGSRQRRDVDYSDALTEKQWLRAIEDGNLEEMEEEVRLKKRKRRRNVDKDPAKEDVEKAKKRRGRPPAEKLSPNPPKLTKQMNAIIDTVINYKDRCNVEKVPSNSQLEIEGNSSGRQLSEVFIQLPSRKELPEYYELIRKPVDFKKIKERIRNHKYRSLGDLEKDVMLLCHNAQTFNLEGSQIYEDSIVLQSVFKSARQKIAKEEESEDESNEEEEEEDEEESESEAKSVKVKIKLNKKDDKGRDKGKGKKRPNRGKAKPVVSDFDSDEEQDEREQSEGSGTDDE
# measurement-description: SMARCA2 degradation assay (HiBiT-fusion HeLa cell line, 24 h, luminescence)
# Type: cell-based
# measurement-conditions: @ 1 μM
readout-label: SMARCA2 % Degradation @ 1 μM

// solved cases for SMARCA2 % Degradation @ 1 μM follow
[
  {
    "compound": "Nc1nnc(-c2ccccc2O)cc1N1CCN(c2ccnc(C#CCNC(=O)c3cc4n(n3)CCCO4)n2)CC1 [Compound P-57]",
    "experimental-system": "SMARCA2-HiBiT HeLa cells (protein which is expressed from the SMARCA2 gene) (Homo sapiens)",
    "SMARCA2 % Degradation @ 1 μM": "++ (++=30-70%)"
  },
  {
    "compound": "Nc1nnc(-c2ccccc2O)cc1N1CCCN(c2ccnc(C#CCN3C[C@@H]4C[C@H]3CO4)n2)CC1 [Compound P-377]",
    "experimental-system": "SMARCA2-HiBiT HeLa cells (protein which is expressed from the SMARCA2 gene) (Homo sapiens)",
    "SMARCA2 % Degradation @ 1 μM": "++ (++=30-70%)"
  },
  {
    "compound": "C[C@H]1CCN(c2cc(-c3ccccc3O)nnc2N)CCN1c1ccnc(C#CCNC(=O)c2cc3ncccn3n2)n1 [Compound P-102]",
    "experimental-system": "SMARCA2-HiBiT HeLa cells (protein which is expressed from the SMARCA2 gene) (Homo sapiens)",
    "SMARCA2 % Degradation @ 1 μM": "+++ (+++=>70%)"
  },
  {
    "compound": "Nc1nnc(-c2ccccc2O)cc1N1CCC2(CCN(c3ccnc(C#CCn4ccnc4)n3)CC2)C1 [Compound P-253]",
    "experimental-system": "SMARCA2-HiBiT HeLa cells (protein which is expressed from the SMARCA2 gene) (Homo sapiens)",
    "SMARCA2 % Degradation @ 1 μM": "++ (++=30-70%)"
  },
  {
    "compound": "Nc1nnc(-c2ccccc2O)cc1N1CCCN(c2ccnc(C#CCNc3nc4ccccc4o3)n2)CC1 [Compound P-26]",
    "experimental-system": "SMARCA2-HiBiT HeLa cells (protein which is expressed from the SMARCA2 gene) (Homo sapiens)",
    "SMARCA2 % Degradation @ 1 μM": "+++ (+++=>70%)"
  }
]

Supply SMARCA2 % Degradation @ 1 μM value. Item: Nc1nnc(-c2ccccc2O)cc1N1CCCN(c2ccnc(C#CCN3CC(=O)NC(=O)C3)n2)CC1 [Compound P-364]
++ (++=30-70%)

Supply SMARCA2 % Degradation @ 1 μM value. Item: C[C@H]1CN(c2ccnc(C#CCn3cncn3)n2)CCN1c1cc(-c2ccccc2O)nnc1N [Compound P-330]
++ (++=30-70%)
